Quick list: inhibition per entry.
# Test system: Protein deacetylase HDAC6 (Homo sapiens)
# Condition details: at 10 µM
Out of some 5,600 compounds screened, about 150 (2.7%) showed an effect of 50% or more. This excerpt belongs to a sample that is enriched for strong results.
Return type: number; implicit unit %.

Some solved cases for reference:
O=c1c(O[C@@H]2O[C@H](CO)[C@H](O)[C@H](O)[C@H]2O)c(-c2ccc(O)c(O)c2)oc2cc(O)cc(O)c12 : 11.7
CC(C)[C@H](C(=O)Nc1ccc(C(=O)NO)cc1)c1ccccc1 : 98
Clc1cccc(Cl)c1CSc1nnc(-c2cnccn2)s1 : 5.02
O=C(O)Cc1nn(Cc2nc3cc(C(F)(F)F)ccc3s2)c(=O)c2ccccc12 : -1.1
NC(=O)c1ccc2[nH]ccc2c1 : -7.83

Here is the next item to consider.
Exercise: Which inhibition is listed for CCCCNc1ncc(-c2ccc(CN3CCOCC3)cn2)c(N[C@H]2CC[C@H](O)CC2)n1 ?
Key: -9.04
